Reported TGI values for a set of compounds
# Tested on: BT-549 breast
# assay.protocol: NCI tumour cell line growth inhibition, 48 h

Some compounds with recorded TGI:
CN(C)CC1CN(C(=O)Nc2ccccc2)C(=N)O1 (stereo not given): > 100 µM
C=C1C(=O)O[C@H]2[C@H]3O[C@@H](C[C@@H]12)[C@](C)(O)CCCC(C)=CCC[C@H]3C: 3.07 µM

Could you now look at the following compound, please?
Param item = Cn1cc(C2=C(c3cccc(NCC(O)CO)c3)C(=O)NC2=O)c2cc(Cl)ccc21 (stereo not given) ; retrieve measured TGI.
9.3 µM

* * *

# Tested on: NCI-H226 lung
# assay.protocol: NCI tumour cell line growth inhibition, 48 h; in the data active means GI50 below about 0.43 µM; inactive means the rest
Where a SMILES comes first, the peptide text is derived from it. Bridges are numbered along the chain shown (N, C = ends). Roman numbers before positions name the chains, in order. [ ]: non-standard residue; d: D form. The star is where a group is joined. Heptadecanoyl = CCCCCCCCCCCCCCCCC(=O)*; Phg = N[CH](C(=O)O)c1ccccc1
Write down one outcome, taken from active, inactive

Illustrative cases are given below, each with its answer.
COc1ccc(/C=C2\CCCC3=C2N=C2SC=NN2C3c2ccc(OC)c(OC)c2)cc1OC (stereo not given): inactive
COc1ccc(/C=C/C(=O)c2ccc(NC(=O)CSc3nnc(-c4cc(OC)c(OC)c(OC)c4)o3)cc2)cc1: inactive
COC(=O)C12OCC34C(CC5C(C)=CC(=O)C(O)C5(C)C3C(O)C1O)OC(=O)C(OC(=O)CC(C)C)C24 (stereo not given): active

For CCCCCCCCCCCCCCCCC(=O)N1CCCC1C(=O)NCC(=O)NC(C(=O)N1CCCC1C(=O)NC(CO)C(=O)NC(Cc1ccc(O)cc1)C(=O)NC(CCCCNC(=O)C1CCCN1C(=O)C(CCCCN)NC(=O)C(CCCCN)NC(=O)C(CCCCN)NC(=O)C(CCCNC(=N)N)NC(=O)C(CCCCN)NC(=O)C(N)C(C)C)C(=O)NC(CC(C)C)C(=O)NC(CCCNC(=N)N)C(=O)N1CCCC1C(=O)NCC(N)=O)c1ccccc1 (stereo not given) (I: Heptadecanoyl-PG[Phg]PSYKLRPG-NH2 / II: H-VKRKKKP; amide I:7-II:C; configuration not given here) , which call appears in the assay record?
inactive

For `N=c1c2c(=O)n3c(nc2nc2sc4ccc(Cl)cc4n12)-c1ccccc1Sc1ccccc1-3` , which call appears in the assay record?
inactive
